Assignment: determine reported IC50 for the given compounds.
target-or-system: ETA (Oryctolagus cuniculus)
Sequence (A5A8K3 21-427): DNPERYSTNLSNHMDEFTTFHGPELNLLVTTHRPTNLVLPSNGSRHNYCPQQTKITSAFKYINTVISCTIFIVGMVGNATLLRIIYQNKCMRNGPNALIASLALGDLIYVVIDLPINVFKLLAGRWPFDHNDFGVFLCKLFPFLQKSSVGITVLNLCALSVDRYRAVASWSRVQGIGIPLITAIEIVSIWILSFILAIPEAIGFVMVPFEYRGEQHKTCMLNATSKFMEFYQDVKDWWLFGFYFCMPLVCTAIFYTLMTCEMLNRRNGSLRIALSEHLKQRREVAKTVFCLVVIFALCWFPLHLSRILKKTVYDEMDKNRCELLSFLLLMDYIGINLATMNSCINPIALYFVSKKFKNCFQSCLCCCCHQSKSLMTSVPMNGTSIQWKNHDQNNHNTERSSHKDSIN
assay-context: ERBA-A IC50, [125I]-ET-1, rabbit renal artery vascular smooth muscle cells
State the answer as a number, implicitly in nM.

Reported IC50 of `COc1ccc(C(=O)/C(Cc2ccccc2)=C(\C(=O)O)c2cc(OC)c3c(c2)OCO3)cc1C` : 10

Reported IC50 of COc1ccc(C2(O)OC(=O)C(c3ccc4c(c3)OCO4)=C2CC2CC2)cc1 (centres unmarked) : 39

Reported IC50 of COc1ccc(C2(O)OC(=O)C(c3ccc4c(c3)OCO4)=C2Cc2ccc(Cl)c(Cl)c2)cc1 (centres unmarked) : 240

Reported IC50 of COc1ccc(C2(O)OC(=O)C(c3ccc4c(c3)OCO4)=C2Cc2ccc(OC(C)C)cc2)cc1 (centres unmarked) : 3.3

Reported IC50 of COc1ccc(C2(O)OC(=O)C(c3cc(OC)cc(OC)c3)=C2Cc2ccc(OC)c(C)c2)cc1 (centres unmarked) : 6.4

Reported IC50 of COc1ccc(C2(O)OC(=O)C(c3ccc(F)c(F)c3)=C2Cc2ccc(N(C)C)cc2)cc1 (centres unmarked) : 1700

Reported IC50 of COc1ccc(C2(O)OC(=O)C(c3ccc4c(c3)OCO4)=C2Cc2cc(OC)c(OC)cc2OC)cc1 (centres unmarked) : 2

Reported IC50 of COc1cc(OC)cc(C2=C(Cc3ccc(OC(C)C)c(C)c3)C(O)(c3ccc(OC)c(C)c3)OC2=O)c1 (centres unmarked) : 47

* * *

target-or-system: UniProtKB A5A8K3
assay-context: ERBA-A IC50, [125I]-ET-1, rabbit renal artery vascular smooth muscle cells
pIC50: −log10 of the molar value. Counter-ions that a name gives are not always drawn.
Entry flag: True if pIC50 reaches 7; False if it does not.

Evaluate CCCOc1cccc(CC2=C(c3cc(OC)cc(OC)c3)C(=O)OC2(O)c2ccc(OC)cc2)c1 (stereo not shown) : pIC50 at minimum 7?
True

Evaluate COC(=O)c1cccc(C/C(C(=O)c2ccc(OC)cc2)=C(/C(=O)O)c2ccc3c(c2)OCO3)c1 [Example 405, monopotassium salt] : pIC50 at minimum 7?
True

Evaluate COc1ccc(C2(O)OC(=O)C(c3ccc4c(c3)OCO4)=C2Cc2ccc(S(C)(=O)=O)cc2)cc1 (stereo not shown) : pIC50 at minimum 7?
True

Evaluate COc1ccc(C2(O)OC(=O)C(c3cccc(OC)c3)=C2Cc2ccccc2)cc1 (stereo not shown) : pIC50 at minimum 7?
False

Evaluate COC(=O)Cc1ccc(CC2=C(c3ccc4c(c3)OCO4)C(=O)OC2(O)c2ccc(OC)cc2)cc1 (stereo not shown) : pIC50 at minimum 7?
True

Evaluate `COc1ccc(C(=O)/C(Cc2ccccc2)=C(\C(=O)O)c2cc(OC)c3c(c2)OCO3)cc1` : pIC50 at minimum 7?
True

Evaluate COc1ccc(C2(O)OC(=O)C(c3ccc4c(c3)OCO4)=C2Cc2cc(OC)cc(OC)c2)cc1 (stereo not shown) : pIC50 at minimum 7?
True

Evaluate COc1ccc(C2(O)OC(=O)C(c3ccc4c(c3)OCO4)=C2Cc2cccc(C)c2)cc1 (stereo not shown) : pIC50 at minimum 7?
True

Evaluate COc1ccc(C2(O)OC(=O)C(c3ccc4c(c3)OCO4)=C2Cc2ccc(NC(C)=O)cc2)cc1 (stereo not shown) : pIC50 at minimum 7?
True

Evaluate O=C1OC(O)(c2ccc(Cl)cc2)C(Cc2ccc3c(c2)OCO3)=C1c1ccc(Cl)c(Cl)c1 (racemic) : pIC50 at minimum 7?
False

Evaluate COc1ccc(C(=O)/C(Cc2ccccc2)=C(\C(=O)O)c2ccc3c(c2)OCO3)cc1 [Example 351] : pIC50 at minimum 7?
True

Evaluate COc1ccc(CC2=C(c3ccc(Cl)c(Cl)c3)C(=O)OC2(O)c2ccc(OC)cc2)cc1 (stereo not shown) : pIC50 at minimum 7?
False

Evaluate COc1ccc(C2(O)OC(=O)C(c3cc(OC)c4c(c3)OCO4)=C2Cc2ccccc2)cc1C (stereo not shown) : pIC50 at minimum 7?
True

Evaluate CCC(CC)CC1=C(c2ccc3c(c2)OCO3)C(=O)OC1(O)c1ccc(OC)cc1 (stereo not shown) : pIC50 at minimum 7?
True
